Tested system: Single-stranded DNA cytosine deaminase (Homo sapiens) (UniProt Q9GZX7)
Sequence (Q9GZX7 whole entry, looked up): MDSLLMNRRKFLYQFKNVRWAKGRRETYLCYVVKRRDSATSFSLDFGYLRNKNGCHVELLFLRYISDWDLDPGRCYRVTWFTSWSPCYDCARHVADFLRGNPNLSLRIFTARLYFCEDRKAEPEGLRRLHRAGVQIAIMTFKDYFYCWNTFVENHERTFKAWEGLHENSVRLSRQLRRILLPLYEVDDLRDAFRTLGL
Experiment: Confirmatory (Round 2) qHTS assay for inhibitors of Activation Induced Cytidine Deaminase (AID): AID signals
Recorded conditions: AID deamination FRET-based fluorescence assay with UDG, 4 h; series mostly up to 78.4 µM
Results filed as inconclusive are left out. The source made the active and inactive calls. Calls follow the shape of the dose curve; as a rule, active = well fitted curve in the direction sought with a large enough effect; inconclusive = small, poorly fitted or top-dose-only effect, or another doubt; inactive = no such curve, though single readings can be large or run the other way.
Response enum: active, inactive

Hey, what did the test say about `O=C(O)C1=CC(=C(c2ccc(O)c(C(=O)O)c2)c2ccc(O)c(C(=O)O)c2)C=CC1=O` ?
active

Note, next up: `Cc1noc(C)c1CCSc1nc(-c2ccccc2)nc2cc(=O)[nH]n12`
inactive

Note, next up: `O=c1cc2nc(-c3ccccc3)nc(SCCN3CCC(F)(F)CC3)n2[nH]1`
inactive

Note, next up: `Cn1ccnc1CCSc1nc(-c2ccccc2)nc2cc(=O)[nH]n12`
inactive

All values here come from PubChem BioAssay AID1347433.
